measured on: CA IX catalytic domain protein (CA9-CD) (human, UniProt Q16790 138-391)
assay method text: ELISA on CA9-CD (catalytic domain)
OD values for the binders below.
The number alone won't do; follow it with the unit.

Here is how some binders turned out for OD.
binder	value observed
AB-MN-22.25 (antibody, human IgG2, V domains shown, also called AX014H22-25) VH: QLQLQESGPGLVKPSETLSLTCTVSDGSISSSSYYWGWIRQPPGKGLEWIGSIYYSGSTYYNPSLKSRVTISVDTSKNQFSLKLSSVTAADTAVYYCARHGSFFDYWGQGTLVTVSS VL: DIQMTQSPSSLSASVGDRVTITCRASQGIRNDLGWYQQKPGKAPKRLIYAASSLQSGVPSRFSGSGSGTEFTLTISSLQPEDFTTYYCLQYKSYPWTFGQGTKVEIK	2.48 OD
AB-MN-22.17 (antibody, human IgG2, V domains shown, also called AX014H22-17) VH: QVQLQESGPGLVKPSETLSLTCTVSGGSISSYYWSWIRQPPGKGLEWIGYIYYSGSTNYNPSLKSRVTISVDTSKNQFSLKLSSVTAADTAVYYCARRGYDILTGYDYFDYWGQGTLVTVSS VL: DIQMTQSPSSVSASVGDRVTITCRASQGISIWLTWYQQKPGKAPKLLIYAASSLQSGVPSRFSGSGSGTDFTLTISSLQPEDFATYYCQQANSFPITFGQGTRLEIK	2.57 OD
AB-MN-22.12 (antibody, human IgG2, V domains shown, also called AX014H22-12) VH: QVQLQESGPGLVKPSETLSLTCTVSGGSISSYYWSWIRQPPGKGLEWIGYIYSSGSTNYNPSLKSRVTISVDTSKNQFSLKLSSVTAADTAVYYCARDQHSSSFYYYYYGMDVWGQGTTVTVSS VL: DIQMTQSPSSVSASVGDRVTITCRASQGISSWLAWYQQKPGKAPKLLIYAASSLQSGVPSRFSGSGSGTDFTLTISSLQPEDFATYYCQQANSFPLTFGPGTKVDIK	2.58 OD
AB-MN-21.1.1 (antibody, human IgG1, V domains shown, also called 21.1.1 a; AX014H21-1-1) VH: QVQLQESGPGLVKPSETLSLTCTVSGGSISSYYWSWIRQPPGKGLEWIGYIYYSGSTNYNPSLKSRVTISVDTSKNQFSLKLSSVTAADTAVYYCARRGYDILTGYDYFDYWGQGTLVTVSS VL: DIQMTQSPSSVSASVGDRVTITCRASQGISIWLTWYQQKPGKAPKLLIYAASSLQSGVPSRFSGSGSGTDFTLTISSLQPEDFATYYCQQANSFPITFGQGTRLEIK	2.5 OD

Query block: Supply recorded OD for AB-MN-22.8.1 (antibody, human IgG2, V domains shown, also called AX014H22-8-1) VH: SGPGLVKPSETLSLTCTVSGGSISSYYWSWIRQPPGKGLEWIGYIYYSGSTNYNPSLKSRVTISVDTSKNQFSLKLTSVTAADTAVYYCARDQHSSSVYYYYYGMDVWGQGTTVTVSS VL: ETQLTQSPGTLSLSPGERATLSCRASQSIYINYLAWYQQKPGQAPRLLISGASSRATGIPDRFSGSGSGTDFTLTISRLEPEDFAVYYCQQYGRSLTFGGGTEVEIKR here.
Result block: 2.77 OD
